Test system: LOU-NH91
Experiment: relative viability (nuclei count vs DMSO), 5 days (fraction); higher = more cells survive
Conditions: first compound 2.53 µM
property_label: relative viability
One number for each entry.

Go through the list and state relative viability for each entry.
1. Cc1cnc(-c2cnc(NCCNc3ccc(C#N)cn3)nc2-c2ccc(Cl)cc2Cl)[nH]1 + CCNC(=O)c1noc(-c2cc(C(C)C)c(O)cc2O)c1-c1ccc(CN2CCOCC2)cc1 [Luminespib] (partner 0.01 µM)
2. Cc1cnc(-c2cnc(NCCNc3ccc(C#N)cn3)nc2-c2ccc(Cl)cc2Cl)[nH]1 + CC(=O)c1c(C)c2cnc(Nc3ccc(N4CCNCC4)cn3)nc2n(C2CCCC2)c1=O [Palbociclib] (partner 0.5 µM)
3. O=c1[nH]c2ccccc2n1C1CCN(CCCC(c2ccc(F)cc2)c2ccc(F)cc2)CC1 [Pimozide] + NC(=O)Nc1cc(-c2cccc(F)c2)sc1C(=O)N[C@H]1CCCNC1 [AZD7762] (partner 0.2 µM)

Ans.
1. 0.376
2. 0.527
3. 0.778

// for each molecule below, give its relative viability
1. O=c1[nH]c2ccccc2n1C1CCN(CCCC(c2ccc(F)cc2)c2ccc(F)cc2)CC1 [Pimozide] + Nc1ncn([C@H]2C[C@H](O)[C@@H](CO)O2)c(=O)n1 [Decitabine] (partner 2 µM)
2. O=c1[nH]c2ccccc2n1C1CCN(CCCC(c2ccc(F)cc2)c2ccc(F)cc2)CC1 [Pimozide] + Cc1nc(Nc2ncc(C(=O)Nc3c(C)cccc3Cl)s2)cc(N2CCN(CCO)CC2)n1 [Dasatinib] (partner 0.075 µM)
3. Cc1cnc(-c2cnc(NCCNc3ccc(C#N)cn3)nc2-c2ccc(Cl)cc2Cl)[nH]1 + Cc1nc(NC(=O)N2CCC[C@H]2C(N)=O)sc1-c1ccnc(C(C)(C)C(F)(F)F)c1 [Alpelisib] (partner 2 µM)
4. O=c1[nH]c2ccccc2n1C1CCN(CCCC(c2ccc(F)cc2)c2ccc(F)cc2)CC1 [Pimozide] + Cc1nc(NC(=O)N2CCC[C@H]2C(N)=O)sc1-c1ccnc(C(C)(C)C(F)(F)F)c1 [Alpelisib] (partner 2 µM)

Ans.
[0.829, 0.572, 0.715, 0.733]
